# IC50 listing for each entry below
target: recombinant human MAO-A (monoamine oxidase-A) (Homo sapiens); construct: purchased Sigma-Aldrich; assay: Activity evaluation on recombinant human MAO-A (Amplex Red/HRP-coupled assay, 0.5 mM tyramine substrate); assay type: biochemical; settings: 0.5 mM tyramine, read-out: Inhibitory Activity (IC50, nM) MAO-A
Sequence (P21397 whole entry): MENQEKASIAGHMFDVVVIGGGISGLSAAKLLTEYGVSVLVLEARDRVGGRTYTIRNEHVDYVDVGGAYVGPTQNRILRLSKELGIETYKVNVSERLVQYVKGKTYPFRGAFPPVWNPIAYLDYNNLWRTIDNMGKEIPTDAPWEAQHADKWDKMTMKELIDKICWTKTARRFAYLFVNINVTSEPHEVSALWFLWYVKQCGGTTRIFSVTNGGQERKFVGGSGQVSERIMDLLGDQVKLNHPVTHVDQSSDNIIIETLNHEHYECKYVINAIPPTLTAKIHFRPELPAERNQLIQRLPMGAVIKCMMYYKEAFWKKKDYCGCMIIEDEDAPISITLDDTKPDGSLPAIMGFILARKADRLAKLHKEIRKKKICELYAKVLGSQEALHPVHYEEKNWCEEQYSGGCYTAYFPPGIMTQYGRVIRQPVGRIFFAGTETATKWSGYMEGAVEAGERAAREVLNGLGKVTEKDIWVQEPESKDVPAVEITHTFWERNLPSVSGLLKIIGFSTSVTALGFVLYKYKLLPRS
Counter-ions that a name gives are not always drawn.

Look over these answered cases.
q: Find the recorded IC50 belonging to CS(=O)(=O)c1ccc(-c2ccc(-n3cnn(CC(CN)=C(F)F)c3=O)cc2F)cc1 [Example 24, Trifluoroacetate] and report it.
a: > 100000 nM

q: Now consider CS(=O)(=O)c1ccc(-c2ccc(-n3cnn(CC(CN)=C(F)F)c3=O)c(F)c2)cc1 [Example 31, Trifluoroacetate] .
a: > 100000 nM

***
q: Find the recorded IC50 belonging to Cc1cc(-c2csc(Cn3cnn(CC(CN)=C(F)F)c3=O)c2)cc2c1NC(=O)CC2 [Example 151, Trifluoroacetate] and report it.
a: > 100000 nM

q: Now consider CN(C)c1ccc(-c2ccnc(-n3cnn(CC(CN)=C(F)F)c3=O)c2)cn1 [Example 57, Trifluoroacetate] .
a: > 100000 nM

q: Now consider NCC(Cn1ncn(Cc2ccc(-c3cnc(N)nc3)s2)c1=O)=C(F)F [Example 116, Trifluoroacetate] .
a: > 100000 nM

q: Now consider Cc1cc(Br)ccc1-n1cnn(CC(CN)=C(F)F)c1=O [Example 6, trifluoroacetate] .
a: > 100000 nM

q: Now consider NCC(Cn1ncn(-c2ccc(Br)nc2)c1=O)=C(F)F [Example 7, Trifluoroacetate] .
a: > 100000 nM

====

# log10 IC50 listing for each entry below
target: recombinant human MAO-B (monoamine oxidase-B) (Homo sapiens); construct: purchased Sigma-Aldrich; assay: Activity evaluation on recombinant human MAO-B (Amplex Red/HRP-coupled assay, 1 mM benzylamine substrate); assay type: biochemical; conditions: 1 mM benzylamine, read-out: Inhibitory Activity (IC50, nM) MAO-B
Counter-ions that a name gives are not always drawn.
Log scale reminder: IC50 in nM, then log10 taken.

q: Find the recorded log10 IC50 belonging to NCC(Cn1ncn(-c2ccc(F)cc2)c1=O)=C(F)F [Example 1, Trifluoroacetate] and report it.
a: 4.59

q: Now consider CN(C)c1ccc(-c2ccc(Cn3cnn(CC(CN)=C(F)F)c3=O)s2)cn1 [Example 112, Trifluoroacetate] .
a: 4.41

q: Now consider Cc1cc(-c2ccc(C(F)(F)F)nc2)sc1Cn1cnn(CC(CN)=C(F)F)c1=O [Example 156, Trifluoroacetate] .
a: 4.23

q: Now consider Cc1c(-c2ccc(Cn3cnn(CC(CN)=C(F)F)c3=O)s2)ccc2c1NCCO2 [Example 139, Trifluoroacetate] .
a: 4.32

***
q: Find the recorded log10 IC50 belonging to NCC(Cn1ncn(-c2ccc(-c3ccc4c(c3)OCO4)nc2)c1=O)=C(F)F [Example 42, Trifluoroacetate] and report it.
a: 1.53

====

Molecular target: recombinant human VAP-1 (Homo sapiens, UniProt Q16853)
Construct: purchased R&D systems
Sequence (Q16853 1-763): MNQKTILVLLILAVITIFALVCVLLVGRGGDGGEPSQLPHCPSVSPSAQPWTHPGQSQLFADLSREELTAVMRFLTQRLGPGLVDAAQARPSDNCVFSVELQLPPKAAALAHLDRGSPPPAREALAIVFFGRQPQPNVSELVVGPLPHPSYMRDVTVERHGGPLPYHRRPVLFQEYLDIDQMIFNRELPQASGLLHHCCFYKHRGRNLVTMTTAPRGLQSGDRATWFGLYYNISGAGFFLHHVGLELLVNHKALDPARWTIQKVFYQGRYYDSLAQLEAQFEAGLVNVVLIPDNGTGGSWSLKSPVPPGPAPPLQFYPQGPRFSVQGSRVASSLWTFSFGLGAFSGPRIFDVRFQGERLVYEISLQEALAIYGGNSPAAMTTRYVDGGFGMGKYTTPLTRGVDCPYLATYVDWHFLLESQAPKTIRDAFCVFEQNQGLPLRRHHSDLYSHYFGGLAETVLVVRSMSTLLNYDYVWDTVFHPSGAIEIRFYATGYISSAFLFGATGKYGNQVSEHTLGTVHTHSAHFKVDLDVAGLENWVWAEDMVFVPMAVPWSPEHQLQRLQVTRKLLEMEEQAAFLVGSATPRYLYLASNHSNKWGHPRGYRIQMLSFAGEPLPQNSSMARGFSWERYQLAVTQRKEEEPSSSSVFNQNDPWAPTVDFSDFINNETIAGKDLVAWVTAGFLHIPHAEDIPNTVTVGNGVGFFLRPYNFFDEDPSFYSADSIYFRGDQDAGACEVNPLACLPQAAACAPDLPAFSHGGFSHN
Assay: Activity evaluation on recombinant human VAP-1 (Amplex Red/HRP-coupled hydrogen peroxide assay, benzylamine substrate)
Format: biochemical
Conditions: recombinant human VAP-1; 30 min preincubation at 37° C.; 1 mM benzylamine; read-out: Inhibitory Activity (IC50, nM) human VAP-1
Where a name gives a salt, the structure may show the parent alone.
measuredParameter: log10 of IC50 (log10 of the value in nM)
Log scale reminder: IC50 in nM, then log10 taken.

Look over these answered cases.
q: Find the recorded log10 of IC50 belonging to NCC(Cn1ncn(-c2cccc(-c3ccc(C(F)(F)F)nc3)n2)c1=O)=C(F)F [Example 48, Trifluoroacetate] and report it.
a: 0.00

q: Now consider CS(=O)(=O)c1ccc(-c2cnc(-n3cnn(CC(CN)=C(F)F)c3=O)cn2)cc1 [Example 89, Trifluoroacetate] .
a: -0.22

q: Now consider Cc1cc(-c2cccc(-n3cnn(CC(CN)=C(F)F)c3=O)c2)cc2c1NC(=O)CC2 [Example 22, Trifluoroacetate] .
a: -0.10

q: Now consider Cc1cc(Br)cnc1-n1cnn(CC(CN)=C(F)F)c1=O [Example 11, Trifluoroacetate] .
a: 0.04

q: Now consider CC(=O)N1CCN(c2ccc(-c3ccc(Cn4cnn(CC(CN)=C(F)F)c4=O)s3)cc2)CC1 [Example 108, Trifluoroacetate] .
a: 0.30

***
q: Find the recorded log10 of IC50 belonging to NCC(Cn1ncn(-c2cc(-c3ccc(C(F)(F)F)nc3)ccn2)c1=O)=C(F)F [Example 56, Trifluoroacetate] and report it.
a: 0.20

q: Now consider Cc1cc(-c2ccc3c(c2)OCO3)sc1Cn1cnn(CC(CN)=C(F)F)c1=O [Example 158, Trifluoroacetate] .
a: 0.85

====

Target: recombinant human MAO-B (monoamine oxidase-B) (Homo sapiens)
Construct: purchased Sigma-Aldrich
Sequence (P27338 1-520): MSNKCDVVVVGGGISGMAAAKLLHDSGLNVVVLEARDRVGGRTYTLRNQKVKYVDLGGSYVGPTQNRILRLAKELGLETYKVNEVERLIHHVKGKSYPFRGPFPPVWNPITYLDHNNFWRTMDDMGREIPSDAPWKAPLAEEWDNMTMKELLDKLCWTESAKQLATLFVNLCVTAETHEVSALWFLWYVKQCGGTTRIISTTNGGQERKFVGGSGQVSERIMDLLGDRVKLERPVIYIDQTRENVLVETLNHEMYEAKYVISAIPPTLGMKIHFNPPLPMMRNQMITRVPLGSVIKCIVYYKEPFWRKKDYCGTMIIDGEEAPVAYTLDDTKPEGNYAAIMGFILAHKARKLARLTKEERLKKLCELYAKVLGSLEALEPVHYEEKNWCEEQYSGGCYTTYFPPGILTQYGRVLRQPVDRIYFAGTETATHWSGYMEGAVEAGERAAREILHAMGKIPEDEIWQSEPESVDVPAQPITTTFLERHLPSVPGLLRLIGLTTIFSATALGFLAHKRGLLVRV
Assay: Activity evaluation on recombinant human MAO-B (Amplex Red/HRP-coupled assay, 1 mM benzylamine substrate)
Type: biochemical
Conditions: 1 mM benzylamine substrate, read-out: Inhibitory Activity (IC50, nM) MAO-B
Structures can show the parent of a compound that is named as a salt.
# IC50 listing for each entry below
Could you give me the number in nM? Just the number is fine.

Look over these answered cases.
q: Find the recorded IC50 belonging to NCC(Cn1ncn(-c2cccc(-c3ccc4c(c3)NC(=O)OC4)n2)c1=O)=C(F)F [Example 219, Trifluoroacetate] and report it.
a: 68500

q: Now consider CN1C(=O)CCc2cc(-c3ccc4sc(Cn5cnn(CC(CN)=C(F)F)c5=O)cc4c3)ccc21 [Example 211, Trifluoroacetate] .
a: 42700

q: Now consider NCC(Cn1ncn(Cc2cc3ccc(-c4ccc(N5CCNCC5)cc4)cc3s2)c1=O)=C(F)F [Example 198, Ditrifluoroacetate] .
a: 23000

***
q: Find the recorded IC50 belonging to NCC(Cn1ncn(Cc2cc(-c3cccc(-c4nc[nH]n4)c3)cs2)c1=O)=C(F)F [Example 196, Trifluoroacetate] and report it.
a: 2900

====

biological target: recombinant human MAO-A (monoamine oxidase-A) (Homo sapiens); construct: purchased Sigma-Aldrich; assay: Activity evaluation on recombinant human MAO-A (Amplex Red/HRP-coupled assay, 0.5 mM tyramine substrate); format: biochemical; conditions: 0.5 mM tyramine substrate, read-out: Inhibitory Activity (IC50, nM) MAO-A
Where a name gives a salt, the structure may show the parent alone.
# IC50 listing for each entry below

Look over these answered cases.
q: Find the recorded IC50 belonging to Cc1cc(-c2ccc3c(c2)CN(C)C(=O)N3)cnc1-n1cnn(CC(CN)=C(F)F)c1=O [Example 250, Trifluoroacetate] and report it.
a: > 100000 nM

q: Now consider CN1C(=O)CCc2cc(-c3ccc4sc(Cn5cnn(CC(CN)=C(F)F)c5=O)cc4c3)ccc21 [Example 211, Trifluoroacetate] .
a: 38900 nM

q: Now consider Cc1cc(C#Cc2ccc(N(C)C)nc2)cnc1-n1cnn(CC(CN)=C(F)F)c1=O [Example 241, Trifluoroacetate] .
a: > 100000 nM

q: Now consider CCn1cc(-c2cccc(-n3cnn(CC(CN)=C(F)F)c3=O)c2C)cn1 [Example 260, Trifluoroacetate] .
a: > 100000 nM

q: Now consider NCC(Cn1ncn(Cc2cc3ccc(-c4ccc5c(c4)OCO5)cc3s2)c1=O)=C(F)F [Example 201, Trifluoroacetate] .
a: 90800 nM

q: Now consider Cc1cc(-c2cc(F)c(Cn3cnn(CC(CN)=C(F)F)c3=O)s2)cc2c1NC(=O)CC2 [Example 304, Trifluoroacetate] .
a: > 100000 nM

Could you now consider this next molecule?
q: Find the recorded IC50 belonging to CS(=O)(=O)c1ccc(-c2ccc3cc(Cn4cnn(CC(CN)=C(F)F)c4=O)sc3c2)cc1 [Example 197, trifluoroacetate] and report it.
a: > 100000 nM
